Kindly supply the reported Activity values for the records listed here.
# Assayed system: Cyclin-dependent kinase 5/CDK5 activator 1 (Homo sapiens) (UniProt Q00535+Q15078)
# Sequence (Q00535 whole entry): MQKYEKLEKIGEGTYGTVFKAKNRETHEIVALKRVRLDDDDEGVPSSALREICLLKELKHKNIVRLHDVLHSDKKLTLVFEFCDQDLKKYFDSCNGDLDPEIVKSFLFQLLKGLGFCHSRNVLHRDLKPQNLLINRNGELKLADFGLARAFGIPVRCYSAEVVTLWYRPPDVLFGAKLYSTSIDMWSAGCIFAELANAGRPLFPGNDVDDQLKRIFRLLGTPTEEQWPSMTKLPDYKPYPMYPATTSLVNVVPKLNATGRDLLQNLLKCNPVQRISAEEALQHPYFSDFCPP
# Sequence (Q15078 99-307 partner limits assumed): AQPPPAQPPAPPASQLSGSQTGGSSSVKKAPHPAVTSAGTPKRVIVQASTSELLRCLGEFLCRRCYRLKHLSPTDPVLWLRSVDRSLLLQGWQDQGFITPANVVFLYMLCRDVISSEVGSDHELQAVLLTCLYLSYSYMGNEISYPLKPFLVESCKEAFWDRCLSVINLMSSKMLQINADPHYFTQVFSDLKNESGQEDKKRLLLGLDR
# Procedure summary: Inhibition of recombinant human CDK5/p25 extracted from bacteria using histone H1 as substrate assessed as enzyme residual activity at 1 uM incubated for 30 mins in presence of ATP by ADP-Glo kinase assay relative to control
# Format: protein-complex assay
One number for each entry, in %.

Would you be so kind as to report Activity for each listed record?
1. Cn1cc(-c2ccncc2)c2cc3ccncc3cc21
2. c1cncc(-c2c[nH]c3cc4cnccc4cc23)c1
3. c1cc2cc3c(cc2cn1)NCC3
4. c1ccc(-c2c[nH]c3cc4cnccc4cc23)nc1
5. O=C1CCC(N2C(=O)c3cccc(NCCOCCOCCOCCn4cc(-c5cccnc5)c5cc6ccncc6cc54)c3C2=O)C(=O)N1 (stereo unspecified)

[63, 86, 89, 72, 100]

Item: O=C1CCC(N2C(=O)c3cccc(NCCOCCOCCOCCn4ccc5cc6ccncc6cc54)c3C2=O)C(=O)N1 (stereo unspecified) | System: Cyclin-dependent kinase 5/CDK5 activator 1 (Homo sapiens) (UniProt Q00535+Q15078) | Activity: 100

* * *

# Assayed system: Dual specificity tyrosine-phosphorylation-regulated kinase 1A (Rattus norvegicus) (UniProt Q63470)
# Procedure summary: Inhibition of recombinant rat DYRK1A kinase domain (1 to 499 residues) extracted from bacteria using KKISGRLSPIMTEQ as substrate assessed as enzyme residual activity at 10 uM incubated for 30 mins in presence of ATP by ADP-Glo kinase assay relative to control
Field: label. Allowed values: true (Activity < 80%) or false (Activity >= 80%).

Completed entries (count: 2):
| Compound | Answer label |
| --- | --- |
| Cn1cc(-c2cccnc2)c2cc3ccncc3cc21 | true |
| O=C1CCC(N2C(=O)c3cccc(NCCOCCOCCOCCNC(=O)c4c[nH]c5cc6cnccc6cc45)c3C2=O)C(=O)N1 (stereo not given) | false |

State whether 80% exceeds Activity recorded for Cn1cc(-c2ccccn2)c2cc3ccncc3cc21 .
true

Regarding O=C1CCC(N2C(=O)c3cccc(NCCOCCOCCOCCn4ccc5cc6ccncc6cc54)c3C2=O)C(=O)N1 (stereo not given) , kindly confirm whether its Activity is beneath 80%.
false

In the record for c1cc2c(ccc3cc[nH]c32)cn1 , is Activity less than 80%?
true

* * *

# System: SH-SY5Y
# Procedure summary: Antiproliferative activity against human SH-SY5Y cells assessed as inhibition of cell viability incubated for 48 hrs by MTS assay
# Assay type: functional, cell-based
Would you kindly list EC50 for each of these compounds?
Answers are plain numbers, in µM.

See these solved cases before continuing.
| Structure as smiles | EC50 (µM) |
| --- | --- |
| Cn1cc(-c2ccncc2)c2cc3ccncc3cc21 | 6.4 |
| c1cncc(-c2c[nH]c3cc4cnccc4cc23)c1 | 41.2 |

Note to self: EC50 recorded for Cn1cc(-c2cccnc2)c2cc3ccncc3cc21 was 17.7

* * *

# Assayed system: Serine/threonine-protein kinase haspin (Homo sapiens) (UniProt Q8TF76)
# Sequence (Q8TF76 whole entry, the tested form may be a part): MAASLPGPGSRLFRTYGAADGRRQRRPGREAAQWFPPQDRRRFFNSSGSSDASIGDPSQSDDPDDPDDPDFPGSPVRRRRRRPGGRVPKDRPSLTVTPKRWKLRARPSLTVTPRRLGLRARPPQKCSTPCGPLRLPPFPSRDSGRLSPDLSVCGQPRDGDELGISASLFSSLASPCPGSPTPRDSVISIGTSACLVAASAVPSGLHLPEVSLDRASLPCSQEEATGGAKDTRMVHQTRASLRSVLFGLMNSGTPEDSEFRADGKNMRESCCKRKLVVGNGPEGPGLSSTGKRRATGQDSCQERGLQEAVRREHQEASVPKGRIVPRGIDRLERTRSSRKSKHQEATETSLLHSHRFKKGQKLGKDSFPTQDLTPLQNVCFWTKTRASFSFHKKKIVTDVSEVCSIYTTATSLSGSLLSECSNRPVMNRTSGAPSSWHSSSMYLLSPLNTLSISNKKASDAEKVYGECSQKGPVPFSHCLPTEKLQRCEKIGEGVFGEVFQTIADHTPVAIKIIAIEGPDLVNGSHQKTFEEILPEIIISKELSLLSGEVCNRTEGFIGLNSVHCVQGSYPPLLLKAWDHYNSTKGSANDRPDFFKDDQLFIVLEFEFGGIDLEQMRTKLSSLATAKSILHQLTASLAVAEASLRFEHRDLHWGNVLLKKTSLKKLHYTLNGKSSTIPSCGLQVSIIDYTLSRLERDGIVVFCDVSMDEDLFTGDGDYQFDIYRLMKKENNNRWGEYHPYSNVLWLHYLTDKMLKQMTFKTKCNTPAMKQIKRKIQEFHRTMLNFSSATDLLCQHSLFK
# Procedure summary: Inhibition of recombinant human haspin kinase domain (470 to 798 residues) extracted from bacteria using histone H3 (1 to 21) peptide as substrate assessed as residual activity at 1 uM incubated for 30 mins in presence of ATP by ADP-Glo kinase assay relative to control
Quantity name: Activity (%)
Numbers only, in %.

| Compound | Units symbol | Endpoint result |
| --- | --- | --- |
| c1cncc(-c2c[nH]c3cc4cnccc4cc23)c1 | % | 7 |
| c1ccc(-c2c[nH]c3cc4cnccc4cc23)nc1 | % | 8 |

Hey, can you go through the list below and give me Activity for every item?
1. c1cc2cc3c(cc2cn1)NCC3
2. O=C1CCC(N2C(=O)c3cccc(NCCOCCOCCOCCn4cc(-c5cccnc5)c5cc6ccncc6cc54)c3C2=O)C(=O)N1 (stereo not given)
3. Cn1cc(-c2ccncc2)c2cc3ccncc3cc21

1. 66
2. 70
3. 7

* * *

# Assayed system: Casein kinase I isoform epsilon (Homo sapiens) (UniProt P49674)
# Sequence (P49674 whole entry, looked up, canonical isoform): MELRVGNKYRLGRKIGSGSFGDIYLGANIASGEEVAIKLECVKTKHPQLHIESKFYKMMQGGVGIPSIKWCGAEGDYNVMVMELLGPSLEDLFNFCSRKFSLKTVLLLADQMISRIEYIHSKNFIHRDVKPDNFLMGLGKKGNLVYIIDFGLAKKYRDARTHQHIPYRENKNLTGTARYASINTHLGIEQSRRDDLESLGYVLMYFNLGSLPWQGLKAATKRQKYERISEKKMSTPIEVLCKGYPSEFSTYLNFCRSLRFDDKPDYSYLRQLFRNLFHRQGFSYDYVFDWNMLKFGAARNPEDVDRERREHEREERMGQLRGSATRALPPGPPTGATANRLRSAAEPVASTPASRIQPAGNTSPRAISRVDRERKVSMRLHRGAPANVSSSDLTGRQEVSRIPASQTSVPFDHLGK
# Procedure summary: Inhibition of recombinant human CK1epsilon extracted from baculovirus infected Sf9 cells using RRKHAAIGSpAYSITA peptide as substrate assessed as enzyme residual activity at 1 uM incubated for 30 mins in presence of ATP by ADP-Glo kinase assay relative to control
Quantity name: Activity (%)
One number for each entry, in %.

Illustrative cases are given below, each with its answer.
| Compound | Quantity name | Endpoint result |
| --- | --- | --- |
| c1ccc(-c2c[nH]c3cc4cnccc4cc23)nc1 | Activity | 97 |
| Cn1cc(-c2ccccn2)c2cc3ccncc3cc21 | Activity | 100 |
| O=C1CCC(N2C(=O)c3cccc(NCCOCCOCCOCCn4ccc5cc6ccncc6cc54)c3C2=O)C(=O)N1 (stereo unspecified) | Activity | 100 |
| c1cc2c(ccc3cc[nH]c32)cn1 | Activity | 95 |
| c1cncc(-c2c[nH]c3cc4cnccc4cc23)c1 | Activity | 91 |

Here are 3 compounds. What values of Activity were reported for them?
1. c1cc2cc3c(cc2cn1)NCC3
2. Cn1cc(-c2cccnc2)c2cc3ccncc3cc21
3. O=C1CCC(N2C(=O)c3cccc(NCCOCCOCCOCCn4cc(-c5cccnc5)c5cc6ccncc6cc54)c3C2=O)C(=O)N1 (stereo unspecified)

92
94
100

Look at each compound and report its Activity.
1. O=C1CCC(N2C(=O)c3cccc(NCCOCCOCCOCCNC(=O)c4c[nH]c5cc6cnccc6cc45)c3C2=O)C(=O)N1 (stereo unspecified)
2. O=C1CCC(N2C(=O)c3cccc(NCCOCCOCCOCCn4cc(-c5ccncc5)c5cc6ccncc6cc54)c3C2=O)C(=O)N1 (stereo unspecified)
3. Cn1cc(-c2ccncc2)c2cc3ccncc3cc21

[100, 99, 72]

* * *

# Assayed system: Dual specificity protein kinase CLK1 (Mus musculus) (UniProt P22518)
# Sequence (P22518 whole entry, looked up): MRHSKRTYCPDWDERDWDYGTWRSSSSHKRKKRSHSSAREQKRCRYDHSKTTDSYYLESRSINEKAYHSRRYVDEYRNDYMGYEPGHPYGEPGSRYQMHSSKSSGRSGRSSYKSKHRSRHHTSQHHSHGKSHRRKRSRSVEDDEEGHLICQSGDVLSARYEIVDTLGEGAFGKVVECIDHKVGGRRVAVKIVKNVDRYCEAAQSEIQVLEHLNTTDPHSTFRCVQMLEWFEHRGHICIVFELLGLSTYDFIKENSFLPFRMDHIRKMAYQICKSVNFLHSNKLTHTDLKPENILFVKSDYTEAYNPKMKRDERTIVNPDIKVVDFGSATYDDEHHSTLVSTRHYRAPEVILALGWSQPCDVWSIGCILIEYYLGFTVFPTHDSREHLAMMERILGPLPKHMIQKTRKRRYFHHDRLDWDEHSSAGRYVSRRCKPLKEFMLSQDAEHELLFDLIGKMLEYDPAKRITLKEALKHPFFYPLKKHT
# Procedure summary: Inhibition of recombinant mouse CLK1 extracted from bacteria using GRSRSRSRSRSR as substrate assessed as enzyme residual activity at 1 uM incubated for 30 mins in presence of ATP by ADP-Glo kinase assay relative to control
Field: Activity. Provide a value for each of the molecules that follow.
Give bare numbers, in %.

Items follow; give Activity for each.
1. O=C1CCC(N2C(=O)c3cccc(NCCOCCOCCOCCn4cc(-c5ccncc5)c5cc6ccncc6cc54)c3C2=O)C(=O)N1 (stereo unspecified)
2. Cn1cc(-c2ccncc2)c2cc3ccncc3cc21
3. c1cc2cc3c(cc2cn1)NCC3
4. Cn1cc(-c2cccnc2)c2cc3ccncc3cc21

1: 100; 2: 35; 3: 98; 4: 18

Below is a list of molecules. For each, state its recorded Activity.
1. c1ccc(-c2c[nH]c3cc4cnccc4cc23)nc1
2. Cn1cc(-c2ccccn2)c2cc3ccncc3cc21
3. O=C1CCC(N2C(=O)c3cccc(NCCOCCOCCOCCn4cc(-c5cccnc5)c5cc6ccncc6cc54)c3C2=O)C(=O)N1 (stereo unspecified)

1. 27
2. 73
3. 90

Please give Activity for each item listed below.
1. O=C1CCC(N2C(=O)c3cccc(NCCOCCOCCOCCNC(=O)c4c[nH]c5cc6cnccc6cc45)c3C2=O)C(=O)N1 (stereo unspecified)
2. c1cc2c(ccc3cc[nH]c32)cn1
3. O=C1CCC(N2C(=O)c3cccc(NCCOCCOCCOCCn4ccc5cc6ccncc6cc54)c3C2=O)C(=O)N1 (stereo unspecified)
4. c1cncc(-c2c[nH]c3cc4cnccc4cc23)c1

97
80
100
19

* * *

# Assayed system: Glycogen synthase kinase-3 beta (Homo sapiens)
# Procedure summary: Inhibition of recombinant human GSK3beta extracted from baculovirus infected Sf9 cells using GS-1 (YRRAAVPPSPSLSRHSSPHQSpEDEEE) peptide as substrate assessed as enzyme residual activity at 1 uM incubated for 30 mins in presence of ATP by ADP-Glo kinase assay relative to control
We use 80% as the dividing line for Activity: on or above the line is yes (1), below is no (0).

| Compound | Answer label |
| --- | --- |
| c1cncc(-c2c[nH]c3cc4cnccc4cc23)c1 | no (0) |
| c1ccc(-c2c[nH]c3cc4cnccc4cc23)nc1 | yes (1) |
| Cn1cc(-c2ccccn2)c2cc3ccncc3cc21 | no (0) |
| O=C1CCC(N2C(=O)c3cccc(NCCOCCOCCOCCn4cc(-c5ccncc5)c5cc6ccncc6cc54)c3C2=O)C(=O)N1 (stereo unspecified) | yes (1) |
| O=C1CCC(N2C(=O)c3cccc(NCCOCCOCCOCCn4cc(-c5cccnc5)c5cc6ccncc6cc54)c3C2=O)C(=O)N1 (stereo unspecified) | yes (1) |
| Cn1cc(-c2ccncc2)c2cc3ccncc3cc21 | no (0) |

Textbook exercise: given the entry Cn1cc(-c2cccnc2)c2cc3ccncc3cc21 , state whether its Activity is greater than or equal to 80%.
no (0)

Assess whether reported Activity for O=C1CCC(N2C(=O)c3cccc(NCCOCCOCCOCCn4ccc5cc6ccncc6cc54)c3C2=O)C(=O)N1 (stereo unspecified) sits at 80% or higher.
yes (1)

meta.source: ChEMBL document CHEMBL6182870
